# TARGET_UNDER_TEST: the molecule itself
# EXPERIMENT: AUC

{"PROTEIN": "human βB2-crystallin W85F (natural protein, UniProt P43320 1-205, looked up) MASDHQTQAGKPQSLNPKIIIFEQENFQGHSHELNGPCPNLKETGVEKAGSVLVQAGPWVGYEQANCKGEQFVFEKGEYPRWDSFTSSRRTDSLSSLRPIKVDSQEHKIILYENPNFTGKKMEIIDDDVPSFHAHGYQEKVSSVRVQSGTWVGYQYPGYRGLQYLLEKGDYKDSSDFGAPHPQVQSVRRIRDMQWHQRGAFHPSN", "UNITS_TEXT": "%", "% tetramer": 11.5}
{"PROTEIN": "human βB2-crystallin W59F (natural protein, UniProt P43320 1-205, looked up) MASDHQTQAGKPQSLNPKIIIFEQENFQGHSHELNGPCPNLKETGVEKAGSVLVQAGPFVGYEQANCKGEQFVFEKGEYPRWDSWTSSRRTDSLSSLRPIKVDSQEHKIILYENPNFTGKKMEIIDDDVPSFHAHGYQEKVSSVRVQSGTWVGYQYPGYRGLQYLLEKGDYKDSSDFGAPHPQVQSVRRIRDMQWHQRGAFHPSN", "UNITS_TEXT": "%", "% tetramer": 36.1}
{"PROTEIN": "human βB2-crystallin W151F (natural protein, UniProt P43320 1-205, looked up) MASDHQTQAGKPQSLNPKIIIFEQENFQGHSHELNGPCPNLKETGVEKAGSVLVQAGPWVGYEQANCKGEQFVFEKGEYPRWDSWTSSRRTDSLSSLRPIKVDSQEHKIILYENPNFTGKKMEIIDDDVPSFHAHGYQEKVSSVRVQSGTFVGYQYPGYRGLQYLLEKGDYKDSSDFGAPHPQVQSVRRIRDMQWHQRGAFHPSN", "UNITS_TEXT": "%", "% tetramer": 2.7}
{"PROTEIN": "human βB2-crystallin W82F (natural protein, UniProt P43320 1-205, looked up) MASDHQTQAGKPQSLNPKIIIFEQENFQGHSHELNGPCPNLKETGVEKAGSVLVQAGPWVGYEQANCKGEQFVFEKGEYPRFDSWTSSRRTDSLSSLRPIKVDSQEHKIILYENPNFTGKKMEIIDDDVPSFHAHGYQEKVSSVRVQSGTWVGYQYPGYRGLQYLLEKGDYKDSSDFGAPHPQVQSVRRIRDMQWHQRGAFHPSN", "UNITS_TEXT": "%", "% tetramer": 22.3}
